Assay: gradient 5% acetonitrile 3 min, to 50% in 2 min, to 85% in 15 min, held 3 min, 100 µL/min
Conditions: column: Zorbax Extend-C18 2.1 x 50 mm; eluents: water / acetonitrile, 0.1% formic acid
Measured Property: RP-LC retention time (s)

INSERT INTO assay_data (compound, unit_symbol, quantitative_result) VALUES
  ('O=C(Nc1ccccc1)c1cccc(N2CC(C(=O)Nc3cccc(Cl)c3)CC2=O)c1 (stereo not drawn)', 's', 912),
  ('CCn1nccc1-c1cccc(-c2noc(-c3cccc(NC(C)=O)c3)n2)c1', 's', 924),
  ('Cc1ccc(CNC(=O)c2ccc3c(c2)nc2n3CCN(C(C)C)C2=O)cc1C', 's', 767);
